Test system: Mycobacterium tuberculosis
ASSAY REMARKS: Inhibition of multidrug-resistant Mycobacterium tuberculosis PT20 clinical isolate QcrB assessed as reduction in bacterial growth by resazurin reduction microplate assay

{"SMILES STRUCTURE": "NNC(=O)c1ccncc1", "SCALE UNIT": "µM", "MIC": 146}
{"SMILES STRUCTURE": "COc1ccc2nc(C)cc(OCc3ccc(C(C)C)cc3)c2c1", "SCALE UNIT": "µM", "MIC": 0.2}
{"SMILES STRUCTURE": "CO[C@H]1/C=C/O[C@@]2(C)Oc3c(C)c(O)c4c(O)c(c(/C=N/N5CCN(C)CC5)c(O)c4c3C2=O)NC(=O)/C(C)=C\\C=C\\[C@H](C)[C@H](O)[C@@H](C)[C@@H](O)[C@@H](C)[C@H](OC(C)=O)[C@@H]1C", "SCALE UNIT": "µM", "MIC": 12.2}
{"SMILES STRUCTURE": "COc1ccc2nc(C)cc(OCC(=O)c3cccc(Cl)c3)c2c1", "SCALE UNIT": "µM", "MIC": 0.2}
{"SMILES STRUCTURE": "COc1ccc2nc(C)cc(OCC(=O)c3ccccc3)c2c1", "SCALE UNIT": "µM", "MIC": 1}
{"SMILES STRUCTURE": "COc1ccc2nc(C)cc(OCc3ccc(Cl)c(Cl)c3)c2c1", "SCALE UNIT": "µM", "MIC": 0.2}
